This collection of values is drawn from patent US20250313635A1.

# System: T1, recombinant human αvβ5 integrin extracellular domains (human, UniProt P06756 1-992; P18084 1-719, Secreted glycoprotein heterodimer. It is biotinylated on the omitted Avitag, and an interchain disulfide sits in the omitted coiled-coils.)
# T1 construct: Soluble heterodimer co-expressed in Expi293 cells; also called hαvβ5; not shown: Alpha chain: acidic coiled-coil with cysteine and GG-Avitag; Beta chain: basic coiled-coil with cysteine and GG-Avitag
# Assay Details: AlphaLISA blocking of human vitronectin-GST binding
Measurement Kind: IC50 (nM)
I only need the number, in nM, no unit after it.

Lookup: Which IC50 is reported for this binder? Ab-30 (antibody, V domains shown) VH: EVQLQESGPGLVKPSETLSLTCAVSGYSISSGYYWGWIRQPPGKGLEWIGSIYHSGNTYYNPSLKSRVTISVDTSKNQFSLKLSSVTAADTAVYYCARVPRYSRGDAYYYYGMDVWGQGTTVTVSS VL: DIQMTQSPSTLSASVGDRVTITCRASQSISSWLAWYQQKPGKAPKLLIYKASSLESGVPSRFSGSGSGTEFTLTISSLQPDDFATYYCQQVKIYPPYTFGGGTKVEIK
Found: 53.5

Lookup: Which IC50 is reported for this binder? Ab-29 (antibody, V domains shown) VH: ELQLQESGPGLVKPSETLSLTCTVSGGSISSNSYYWGWIRQPPGKGLEWIGSIYYSGSTYYNPSLKSRVTISVDTSKNQFSLKLSSVTAADTAVYYCARVRRVAGRGDSYYYYYGMDVWGQGTTVTVSS VL: DIQMTQSPSSVSASVGDRVTITCRASQGISRWLAWYQQKPGKAPKLLIYAASSLQSGVPSRFSGSGSGTDFTLTISSLQPEDFATYYCQQAISHPWTFGGGTKVEIK
Found: 14.8

Lookup: Which IC50 is reported for this binder? Ab-33 (antibody, V domains shown) VH: EVQLVQSGAEVKKPGSSVKVSCKASGGTFSNYAISWVRQAPGQGLEWMGGIIPIFGTANYAQKFQGRVTITADESTSTAYMELSSLRSEDTAVYYCARAPRSARGDMYYYYYGMDVWGQGTTVTVSS VL: DIQMTQSPSTLSASVGDRVTITCRASQSIGSWLAWYQQKPGKAPKLLIYKASSLESGVPSRFSGSGSGTEFTLTISSLQPDDFATYYCQQYGRYPWTFGGGTKVEIK
Found: 22.3

Lookup: Which IC50 is reported for this binder? Ab-31 (antibody, V domains shown) VH: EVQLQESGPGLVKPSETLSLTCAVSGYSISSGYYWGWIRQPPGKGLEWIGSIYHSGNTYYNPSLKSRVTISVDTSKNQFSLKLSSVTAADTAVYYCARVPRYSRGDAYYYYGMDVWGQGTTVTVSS VL: DIQMTQSPSTLSASVGDRVTITCRASQSIGSWLAWYQQKPGKAPKLLIYKASSLESGVPSRFSGSGSGTEFTLTISSLQPDDFATYYCQQSGPYPWTFGGGTKVEIK
Found: 31.7
